- Tested on: UO-31 renal
- assay_procedure: NCI tumour cell line growth inhibition, 48 h; in the data active means GI50 below about 0.43 µM; inactive means the rest
Possible outcomes: YES (active), NO (inactive)

molecule	class_label
C=C1c2c(C)nn(-c3ccc(OC)cc3)c2N(C)C23C[C@@H]1C1(C)c4c(C)nn(-c5ccc(OC)cc5)c4N(C)C(C)(C[C@H]12)C3 (some centres undefined)	NO
CCOC(=O)c1ccc2c(c1)[n+](=O)c(C(=O)C1CCCS1)c(C(F)(F)F)n2[O-] (centres undefined)	YES
CNC(=O)C(CCc1ccccc1)NC(=O)C(CC(=O)NO)CC(C)C (centres undefined)	NO
CCNCCCn1c2c(c3ccc(F)cc3c1=O)C(=O)c1cc(OC)cnc1-2	YES
N#C/C(=C\c1cn(Cc2ccccc2)c2ccccc12)C(=O)Nc1ncc(Cc2ccccc2Cl)s1	NO
C[CH2][Sn]([CH2]C)([O]C(=O)c1cccc(OC)c1)[O][Sn]([CH2]C)([CH2]C)[O]C(=O)c1cccc(OC)c1	NO
CCOC(=O)/C=C/C1=C(c2ccsc2)c2ccc(OC)cc2CC1	NO
O=[N+]([O-])c1ccc(C(Br)c2ccc([N+](=O)[O-])cc2)cc1	NO
CN1CCCC1c1cccnc1.O=C(O)c1ccccc1O.O=C([O-])c1ccccc1[OH2+].O=C([O-])c1ccccc1[OH2+].O=C([O-])c1ccccc1[OH2+].[Cu+2] (centres undefined)	NO

----------
- Tested on: UACC-62 melanoma
- assay_procedure: NCI tumour cell line growth inhibition, 48 h
Measured TGI, listed per entry for reference.
metric: TGI

                                    molecule    assayed_system  endpoint_value
 0  CCOC(=O)NC(Nc1ccc(OC(F)(F)F)cc1)(C(F)(F)F)C(F)(F)F  UACC-62 melanoma        > 100 µM
 1                   N#CC[C@@H](O)COc1ccccc1  UACC-62 melanoma        > 100 µM
 2  C[n+]1c2ccccc2n2c3ccccc3c(NCCCN3CCOCC3)c(C#N)c21  UACC-62 melanoma         13.8 µM
 3  O=C(Nc1cccc(-n2ccc3c(NC(=O)c4ccccc4)nccc32)c1)Nc1ccc(Cl)c(C(F)(F)F)c1  UACC-62 melanoma           20 µM
 4  COc1nc(NC2OC(COC(C)=O)C(OC(C)=O)C(OC(C)=O)C2OC(C)=O)c2c(OC(C)=O)c(C)c(=O)oc2n1 (stereo unspecified)  UACC-62 melanoma        > 100 µM
 5  Oc1ccc(-c2nc3ccc4ccccc4c3c3c2CCCC3)c(O)c1  UACC-62 melanoma       > 50.6 µM
 6  CC(C)N(C(=O)C12C3C4C1C1C2C3C41C(=O)O)C(C)C (stereo unspecified)  UACC-62 melanoma        > 100 µM
 7              O=C(NC(=S)Nc1ccccn1)c1ccccc1  UACC-62 melanoma        > 100 µM
 8  CCN1C(=O)C(=C/C=C/c2ccc(OC)cc2)C(=O)N(CC)C1=S  UACC-62 melanoma         31.7 µM
 9  C[CH2][Sn]([CH2]C)([O]C(=O)c1cccc(OC)c1)[O][Sn]([CH2]C)([CH2]C)[O]C(=O)c1cccc(OC)c1  UACC-62 melanoma         31.4 µM
10          COc1ccc(/C=C/C(=O)C(C)(C)C)cc1OC  UACC-62 melanoma        > 100 µM

----------
- System: PC-3 prostate
- assay_procedure: NCI tumour cell line growth inhibition, 48 h

molecule	TGI
C(=N\c1nc2cc3sc(/N=C/c4cccs4)nc3cc2s1)/c1cccs1	> 100 µM
Cn1c(=O)n(CCCO)c(=O)c2c1nc(Oc1cccc(OC(F)(F)F)c1)n2Cc1ccc(Cl)cc1	29.3 µM
CCC1CC(C)C(O)/C=C/C=C/CC(C)OC(=O)CC(O)C(OC)C1OC1OC(C)CC(O)(C(C)=O)C1O (configuration not stated)	> 100 µM
O=c1[nH][nH]c(=O)n1Cc1cccc(Cn2c(=O)[nH][nH]c2=O)c1	> 100 µM
O=C(NCCOC(=O)OCCNC(=O)NC1CCCCC1)NC1CCCCC1	> 100 µM
CN(C)c1ccc(Nc2ncnc3ccccc23)cc1	> 100 µM
CC1CN=C(N(Cc2ccc(F)cc2)C(=O)Nc2ccc(Cl)cc2)S1 (configuration not stated)	> 100 µM
Cc1nn(C(=O)c2ccccc2O)c2c1C(c1ccccc1O)SC(N)=N2 (configuration not stated)	> 10 µM
COC(=O)[C@](NC(=O)OCc1ccccc1)([C@@H](C)S(=O)c1ccc(C)cc1)C(F)(F)F (some centres not stated)	> 100 µM
CCOC(=O)c1nc2cc(C(F)(F)F)ccc2nc1Oc1ccc(OC)cc1	> 100 µM
C=C1c2c(C)nn(-c3ccc(OC)cc3)c2N(C)C23C[C@@H]1C1(C)c4c(C)nn(-c5ccc(OC)cc5)c4N(C)C(C)(C[C@H]12)C3 (some centres not stated)	7.77 µM
Brc1ccc(SCN(CSc2ccc(Br)cc2)Cc2ccccc2)cc1	10.3 µM
c1cc(-c2ccc(-c3ccc(-c4ccc(-c5cccc6nsnc56)[nH]4)c4nsnc34)[nH]2)c2nsnc2c1	> 100 µM
N#Cc1c(-c2ccc(Cl)cc2)csc1NC(=O)Nc1ccc(Cl)c(C(F)(F)F)c1	2.04 µM
COc1ccc(Nc2nn3c(=O)c4c(C)c(C)sc4nc3s2)cc1	> 100 µM
CC1=C(C(=O)OCc2ccncc2)C(C2=C(C)SCCS2)C(C(=O)OCc2ccncc2)=C(C)N1	52.4 µM
O=C(/C=C/c1cc2ccccc2[nH]c1=O)c1ccc(Cl)cc1	> 100 µM
O=C1c2scc(-c3ccccc3)c2-n2cccc21	41.2 µM
O=C1C=CC(=O)c2c(O)c(N3CCN(c4ccccn4)CC3)c(Cl)c(O)c21	4.48 µM
CC(=O)OC1CC2CC(=O)CC1N2C (configuration not stated)	> 100 µM
Oc1ccc(Nc2nc3ccccc3c3occc23)cc1	66.4 µM
COC(=O)C1C(O)C(C)C(=O)C(C)/C=C\C=C(C)C(=O)Nc2c(C)c(OC(C)=O)c3c(c2O)C(=O)C(C)=C2OCOC(=C23)C(C)=CC(C)(O)C(O)C(C)C1O (configuration not stated)	> 100 µM
COc1ncc(-c2ccc3nccc(C#CCCCCC(=O)O)c3c2)cc1NS(=O)(=O)c1ccc(F)cc1F	> 100 µM
CC(/C=N/N(C)C1=NCCCN1)=N/N(C)C1=NCCCN1	> 100 µM
O=C1NC(=O)/C(=C/c2c(Cl)nc3sccn23)S1	> 100 µM
COc1ccc2c3c1O[C@H]1[C@@H](O)CC[C@@]4(O)[C@@H](C2)N(C)CC[C@]314	> 100 µM
O=C1c2ccccc2C(=Nc2ccc3ccccc3c2)C1(C1=C(c2ccccc2)C(=Nc2ccc3ccccc3c2)c2ccccc21)c1ccccc1 (configuration not stated)	> 100 µM
c1ccc(NNC2=NCCN2)cc1	> 100 µM
CCc1c(-c2ccc(OC)cc2)c(=O)oc2cc(O)ccc12	83.3 µM
N#CC[C@@H](O)COc1ccccc1	> 100 µM
COc1cc(N2C(=O)C(=O)C3(CCCCC3)C2=O)cc(OC)c1OC	> 100 µM
C=CCN(Cc1ccncc1)C(=O)C(O)(c1ccccc1)c1ccccc1	> 100 µM

----------
- Tested on: K-562 leukemia
- assay_procedure: NCI tumour cell line growth inhibition, 48 h; in the data active = GI50 below about 0.43 µM; inactive = the rest
Classes used: active, inactive

compound	class_label
CCOC(=O)c1c(NC(=O)COc2cccc3cccnc23)sc(C(=O)N(C)C)c1C	inactive
CCNCCCn1c2c(c3ccc(F)cc3c1=O)C(=O)c1cc(OC)cnc1-2	active
Cc1c([C@H](C(Cl)Cl)[C@H](O)[C@H]2C[C@H](C)C(=O)O2)ccc2c1C(=O)[C@H]1[C@H]2C[C@@H](Br)[C@@]23O[C@@H](CO[C@H]2O)CC13C (stereo partly drawn)	active
COc1cc(/C=C/C(=O)Nc2ccc3c(c2)/C(=C\c2cccn2C)C(=O)N3)cc(OC)c1OC	inactive
N#C/C(=C\c1cn(Cc2ccccc2)c2ccccc12)C(=O)Nc1ncc(Cc2ccccc2Cl)s1	inactive
O=C1C(Cl)=C(Nc2cccc(O)c2)C(=O)N1CCc1ccccc1	inactive
COc1cc(C(=O)c2c(-c3ccccc3)oc3c(OC)cccc23)cc(OC)c1O	active
CNC(=O)C(CCc1ccccc1)NC(=O)C(CC(=O)NO)CC(C)C (stereo not drawn)	inactive
CCOC(=O)c1ccc2c(c1)[n+](=O)c(C(=O)C1CCCS1)c(C(F)(F)F)n2[O-] (stereo not drawn)	active
O=[N+]([O-])c1ccc(C(Br)c2ccc([N+](=O)[O-])cc2)cc1	inactive
CN1CCCC1c1cccnc1.O=C(O)c1ccccc1O.O=C([O-])c1ccccc1[OH2+].O=C([O-])c1ccccc1[OH2+].O=C([O-])c1ccccc1[OH2+].[Cu+2] (stereo not drawn)	inactive
COc1ccc(-c2nnc(COc3ccc(Cl)cc3Cl)o2)cc1OC	inactive
Brc1ccc(SCN(CSc2ccc(Br)cc2)Cc2ccccc2)cc1	inactive
COC(=O)[C@@H](C)C[C@H](Cc1ccccc1)NC(=O)c1cccc([C@@H](C[C@H](C(C)C)N(C)C(=O)[C@@H](NC(=O)[C@H]2CCCCN2C)C2CC2)OC(C)=O)n1	active
COc1ncc(-c2ccc3nccc(C#CCCCCC(=O)O)c3c2)cc1NS(=O)(=O)c1ccc(F)cc1F	inactive
O=C(Nc1cccc(-n2ccc3c(NC(=O)c4ccccc4)nccc32)c1)Nc1ccc(Cl)c(C(F)(F)F)c1	active
O=C1NC(=O)/C(=C/c2c(Cl)nc3sccn23)S1	inactive
O=C(Nc1ccc(-n2cc(-c3ccncc3)c(-c3ccc(O)c(Cl)c3)n2)cc1)c1cc(C(F)(F)F)cc(C(F)(F)F)c1	inactive

The values you see were collected from PubChem BioAssay (NCI).
